# System Under Test: S1P4 (Homo sapiens)
# Sequence (O95977 whole entry): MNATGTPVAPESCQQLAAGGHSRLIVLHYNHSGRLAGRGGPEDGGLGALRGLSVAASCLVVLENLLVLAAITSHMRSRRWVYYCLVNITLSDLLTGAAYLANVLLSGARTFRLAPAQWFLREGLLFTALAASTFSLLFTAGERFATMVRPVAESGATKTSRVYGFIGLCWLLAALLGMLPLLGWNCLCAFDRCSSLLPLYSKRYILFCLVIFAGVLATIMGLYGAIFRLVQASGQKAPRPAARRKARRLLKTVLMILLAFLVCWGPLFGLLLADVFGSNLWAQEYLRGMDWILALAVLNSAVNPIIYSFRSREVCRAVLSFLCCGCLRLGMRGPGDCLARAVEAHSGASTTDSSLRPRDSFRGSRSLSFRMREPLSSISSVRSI
# Method Notes: Aequorin assay, agonist potency, S1P4
# Condition Set: agonist mode, aequorin luminescence
pEC50: −log10 of the molar value. Where a name gives a salt, the structure may show the parent alone.
Value Type: pEC50

Some solved cases for reference:
O=C(O)C1(CN2CC3(Cc4ccc(OCCc5cccc(Cl)c5)cc4C3)C2)CC1 = > 6.00
CCc1cccc(Cl)c1COc1ccc2c(c1)CC1(CCN(CC(=O)O)CC1)C2 [Example 161, hydrochloride] = > 6.00

Now look at this one.
Task: Any idea what its pEC50 is? The compound is `O=C(O)CN1CC2(Cc3ccc(C#Cc4ccccc4Cl)cc3O2)C1`
Result: > 6.00
